Known Residual activity [%] of a selection of binders
biological target: T1, VLP2 (virus-like particles of AAV2) (AAV2, UniProt P03135 1-735; P03135 1-598; P03135 1-533); test: ELISA on VLP2; binding after pH 10.0 41.2°C 15 min / untreated
T1 construct: Empty AAV2 capsid; background says about 60 protein molecules, VP1:VP2:VP3 = 1:1:10; Immobilised on the ELISA plate
T1 sequence (P03135 whole entry, chain 1 of 3): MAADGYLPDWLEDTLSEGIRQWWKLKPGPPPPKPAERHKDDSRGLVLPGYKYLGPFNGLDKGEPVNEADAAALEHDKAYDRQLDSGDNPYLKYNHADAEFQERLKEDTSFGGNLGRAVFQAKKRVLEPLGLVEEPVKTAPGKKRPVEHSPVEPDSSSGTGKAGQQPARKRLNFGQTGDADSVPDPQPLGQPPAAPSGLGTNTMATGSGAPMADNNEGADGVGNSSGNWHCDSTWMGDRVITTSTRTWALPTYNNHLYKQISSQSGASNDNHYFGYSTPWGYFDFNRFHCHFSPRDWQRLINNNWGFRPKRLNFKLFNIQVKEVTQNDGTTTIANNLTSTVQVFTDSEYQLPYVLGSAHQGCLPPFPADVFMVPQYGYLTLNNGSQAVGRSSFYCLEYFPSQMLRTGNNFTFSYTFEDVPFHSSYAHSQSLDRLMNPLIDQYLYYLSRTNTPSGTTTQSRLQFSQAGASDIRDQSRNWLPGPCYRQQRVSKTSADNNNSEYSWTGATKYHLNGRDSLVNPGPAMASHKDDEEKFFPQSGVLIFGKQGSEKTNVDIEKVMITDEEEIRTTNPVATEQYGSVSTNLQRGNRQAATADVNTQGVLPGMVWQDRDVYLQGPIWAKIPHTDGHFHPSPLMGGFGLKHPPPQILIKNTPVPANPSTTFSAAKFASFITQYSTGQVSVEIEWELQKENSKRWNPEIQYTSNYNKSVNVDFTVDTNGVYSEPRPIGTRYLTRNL
T1 sequence (P03135 139-735, tags left off, chain 2 of 3): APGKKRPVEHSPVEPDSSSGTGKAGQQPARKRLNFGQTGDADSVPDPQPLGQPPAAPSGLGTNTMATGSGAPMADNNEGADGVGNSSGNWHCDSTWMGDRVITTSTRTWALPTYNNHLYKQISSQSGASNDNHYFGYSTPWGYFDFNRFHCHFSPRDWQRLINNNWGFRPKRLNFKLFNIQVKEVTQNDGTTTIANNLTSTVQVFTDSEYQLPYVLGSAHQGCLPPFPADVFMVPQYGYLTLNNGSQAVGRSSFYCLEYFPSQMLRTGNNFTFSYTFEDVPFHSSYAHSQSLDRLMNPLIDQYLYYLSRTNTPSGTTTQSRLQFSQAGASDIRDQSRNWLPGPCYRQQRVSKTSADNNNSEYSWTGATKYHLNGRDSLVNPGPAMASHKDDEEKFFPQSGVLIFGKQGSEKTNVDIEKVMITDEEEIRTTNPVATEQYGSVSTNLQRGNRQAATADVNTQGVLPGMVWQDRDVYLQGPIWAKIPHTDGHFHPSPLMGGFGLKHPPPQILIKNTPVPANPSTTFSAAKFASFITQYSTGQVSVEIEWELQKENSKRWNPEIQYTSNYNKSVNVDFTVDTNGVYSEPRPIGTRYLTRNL
T1 sequence (P03135 203-735, chain 3 of 3): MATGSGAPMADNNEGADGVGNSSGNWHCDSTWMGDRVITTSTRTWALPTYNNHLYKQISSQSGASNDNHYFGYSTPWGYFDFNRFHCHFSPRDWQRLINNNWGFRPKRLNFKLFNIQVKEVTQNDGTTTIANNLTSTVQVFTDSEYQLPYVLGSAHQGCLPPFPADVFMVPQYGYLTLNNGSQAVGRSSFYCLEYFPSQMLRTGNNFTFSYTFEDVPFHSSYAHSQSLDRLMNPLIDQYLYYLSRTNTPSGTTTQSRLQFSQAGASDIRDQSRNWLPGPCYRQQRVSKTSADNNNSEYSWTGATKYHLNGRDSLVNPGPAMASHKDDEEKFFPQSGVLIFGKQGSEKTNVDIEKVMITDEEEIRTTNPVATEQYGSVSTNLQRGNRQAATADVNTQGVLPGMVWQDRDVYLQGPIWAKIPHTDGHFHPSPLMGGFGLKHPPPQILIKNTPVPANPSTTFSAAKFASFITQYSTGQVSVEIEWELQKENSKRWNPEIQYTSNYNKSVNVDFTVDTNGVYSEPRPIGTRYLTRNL
Experimental Readout: Residual activity [%] (%)

binder="AAV-binding protein No. 122 (AVR8g + Gln386Arg) (receptor) MGSAGESDQITLPKNEVQLNAYVLQEPPKGETCTYDWQLITHPRDYSGEMEGEHSQILKLSNLTPGLYEFKVIVEGRNAHSEGYVNVTVEPEPRKNRPPIAIVSPQFQEISLPTTSTVIDGSQSTDDDKIVQYHWEELKGPLREEKISEDTAILKLSKLVPGNYTFRLTVVDSDGATDSTTANLTVNKAVDHHHHHH" experimental_readout="Residual activity [%]" result_number=34.9
binder="AAV-binding protein No. 137 (AVR8g + Thr341Pro, Phe379Ser) (receptor) MGSAGESDQITLPKNEVQLNAYVLQEPPKGEPCTYDWQLITHPRDYSGEMEGEHSQILKLSNLTPGLYESKVIVEGQNAHSEGYVNVTVEPEPRKNRPPIAIVSPQFQEISLPTTSTVIDGSQSTDDDKIVQYHWEELKGPLREEKISEDTAILKLSKLVPGNYTFRLTVVDSDGATDSTTANLTVNKAVDHHHHHH" experimental_readout="Residual activity [%]" result_number=86.3
